- Tested on: HCT116 cells
- Protocol Notes: MTT assay
- Assay type: cell-based
- Condition Parameters: Homo sapiens, HCT-116; Table 5F; HCT116 cells, 72 hours
Reported Metric: pIC50
Formally, pIC50 is defined as -log10 of the concentration c, with c in mol/L.

`C[Si](C)(C)C#Cc1ccc(C(=N)Nc2ccccc2N)cc1` has a reported pIC50 of 4.85

* * *

- Assay System: cloned recombinant human HDAC-1 (Homo sapiens, UniProt Q13547)
- Construct: made in house; host or cells: Baculovirus insect cell expression system
- Sequence (Q13547 whole entry): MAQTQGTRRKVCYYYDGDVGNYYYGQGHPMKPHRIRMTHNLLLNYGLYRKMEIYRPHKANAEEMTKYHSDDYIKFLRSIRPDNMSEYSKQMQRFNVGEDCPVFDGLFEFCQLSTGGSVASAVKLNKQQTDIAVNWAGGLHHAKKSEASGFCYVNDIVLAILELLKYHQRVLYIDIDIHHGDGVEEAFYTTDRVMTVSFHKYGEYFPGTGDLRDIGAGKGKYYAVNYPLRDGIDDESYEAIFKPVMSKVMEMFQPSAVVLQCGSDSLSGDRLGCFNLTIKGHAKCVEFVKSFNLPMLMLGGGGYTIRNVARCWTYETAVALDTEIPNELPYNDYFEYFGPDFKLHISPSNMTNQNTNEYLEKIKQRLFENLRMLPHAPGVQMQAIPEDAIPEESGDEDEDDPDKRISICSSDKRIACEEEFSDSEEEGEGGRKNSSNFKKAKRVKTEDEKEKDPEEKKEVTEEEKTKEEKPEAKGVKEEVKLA
- Protocol Notes: Human HDAC-1 enzyme inhibition, Assay 1 ([3H]-acetylated histone substrate, scintillation counting)
- Format: biochemical
- Condition Parameters: Table 5F; read-out: Human HDAC-1 IC50
- Protocol: Assay 1. HDAC inhibitors were screened against a cloned recombinant human HDAC-1 enzyme expressed and purified from a Baculovirus insect cell expression system. […] The mixture was extracted with ethyl acetate and the released [^3H]-acetic acid was quantified by scintillation counting. […] IC50 values for HDAC enzyme inhibitors were determined by performing dose response curves with individual compounds and determining the concentration of inhibitor producing fifty percent of the maximal inhibition.
Reported IC50 values follow for various compounds
Record the result as a number with its unit.

The following compounds have reported results that may help.
Compound	IC50
Nc1ccccc1NC(=O)c1ccc(NCCNc2ccccc2)nc1	3 µM
Nc1ccccc1NC(=O)c1ccc(CC2C(=O)c3ccccc3C2O)cc1 (centres unmarked)	3 µM
Nc1ccccc1NC(=O)c1ccc(Cn2cnc3ccsc3c2=O)cc1	0.4 µM

Could you now look at the following compound, please?
IC50 value, target or system cloned recombinant human HDAC-1 (Homo sapiens, UniProt Q13547), for `Nc1ccccc1NC(=O)c1ccc(C#Cc2ccccc2)cc1` : 4 µM

* * *

- Assay System: cloned recombinant human HDAC-1 (Homo sapiens, UniProt Q13547)
- Construct: made in house; host or cells: Baculovirus insect cell expression system
- Protocol Notes: Human HDAC-1 enzyme inhibition, Assay 1 ([3H]-acetylated histone substrate, scintillation counting)
- Type: biochemical
- Condition Parameters: Table 5F; read-out: Human HDAC-1 IC50
Reported Metric: IC50 (µM)
Respond with the bare value in µM.

The following compounds have reported results that may help.
Compound	Measurement Unit	IC50
COc1ccc(CNc2ccc(C3CC3C(=O)Nc3ccccc3N)cn2)cc1 (centres unmarked)	µM	5
COc1ccc(NCc2ccc(C(=O)Nc3ccccc3N)cc2)c(OC)n1	µM	3
COc1ccc(C2=NCC(c3ccc(C(=O)Nc4ccccc4N)cc3)O2)cc1OC (centres unmarked)	µM	4

IC50 value, target or system cloned recombinant human HDAC-1 (Homo sapiens, UniProt Q13547), for `Cc1ccc(NCc2ccc(C(=O)Nc3ccccc3N)cc2)c(C)c1` : 3

* * *

- Test system: HCT116 cells
- Protocol Notes: MTT assay
- Type: cell-based
- Condition Parameters: Homo sapiens, HCT-116, 72 h, Table 5F; HCT116 cells, 72 hours
Reported pIC50 values follow for various compounds
Formally, pIC50 is defined as -log10 of the concentration c, with c in mol/L.

The following compounds have reported results that may help.
Compound	Quantitative Result
Nc1ccccc1NC(=O)c1ccc(CC2Cc3ccccc3C2O)cc1 (stereo not drawn)	6.05
COc1cc(NCc2ccc(-c3ccc(C(=O)Nc4ccccc4N)cc3)s2)cc(OC)c1OC	6.22
CCn1c(=O)n(Cc2ccc(C(=O)Nc3ccccc3N)cc2)c(=O)c2cc(Br)ccc21	6.70
Nc1ccccc1NC(=O)c1ccc(Cn2c(=O)[nH]c3ccsc3c2=O)cc1	6.52
COc1ccc(NCc2ccc(C(=O)Nc3cc(C(F)(F)F)ccc3N)cc2)cc1OC	4.43

`COc1ccc(N(Cc2ccc(C(=O)Nc3ccccc3N)cc2)C(=O)Nc2ccc(SC)cc2)cc1OC` has a reported pIC50 of 6.52

`Nc1ccccc1NC(=O)c1ccc(CNc2ccc(OC(F)(F)F)cc2)cc1` has a reported pIC50 of 6.05

`Cc1nn(-c2ccccc2)c(C)c1Cc1ccc(C(=O)Nc2ccccc2N)cc1` has a reported pIC50 of 6.52

* * *

Reported pIC50 values follow for various molecules
- Test system: HCT116 cells
- Protocol Notes: MTT assay
- Assay type: cell-based
- Condition Parameters: Homo sapiens, HCT-116, 72 h, Table 5F; HCT116 cells, 72 hours
Formally, pIC50 is defined as -log10 of the concentration c, with c in mol/L.

The following molecules have reported results that may help.
Molecule	pIC50
Nc1ccccc1NC(=O)c1ccc(-c2cccc(CNCc3ccccn3)c2)cc1 [Cpd 187]	5.30
Nc1ccccc1NC(=O)c1ccc(CNc2ncc(Br)s2)cc1 [Cpd 467]	6.40
COc1ccc(CNc2ccc(C(=O)Nc3ccccc3N)cc2)cc1 [Cpd 414]	6.00
CC(=O)Nc1sc(Cc2ccc(C(=O)Nc3ccccc3N)cc2)c(C)c1C#N [compound 281]	6.22
COCCn1cnc2c(NCc3ccc(C(=O)Nc4ccccc4N)cc3)nc(Cl)nc21 [Cpd 243]	6.10

pIC50 value, target or system HCT116 cells, for Nc1ccccc1NC(=O)c1ccc(CSc2nc3ccc(NCc4cccnc4)cc3s2)cc1 [Cpd 325] : 6.00

pIC50 value, target or system HCT116 cells, for Cc1cc(C)nc(SCc2ccc(C(=O)Nc3ccccc3N)cc2)n1 [Cpd 378] : 6.15

pIC50 value, target or system HCT116 cells, for COCCN1C(=O)c2ccc(NCc3ccc(C(=O)Nc4ccccc4N)cc3)cc2C1=O [Cpd 458] : 6.52

pIC50 value, target or system HCT116 cells, for COc1ccc(CNC2(C#Cc3ccc(C(=O)Nc4ccccc4N)cc3)CCCCC2)cc1 [Cpd 192] : 6.00

* * *

- System: HCT116 cells
- Protocol Notes: MTT assay
- Type: cell-based
- Condition Parameters: Homo sapiens, HCT-116, 72 h, Table 5F; HCT116 cells, 72 hours
pIC50: −log10 of the molar value.
Entry flag: true (1) if pIC50 reaches 6; false (0) if it does not.

1. Nc1ccccc1NC(=O)c1ccc(-c2cccc(CNC3Cc4ccccc4C3)c2)cc1 false (0)
2. Cc1cc(C)c(NCc2ccc(C(=O)Nc3ccccc3N)cc2)c(C)c1 true (1)
3. COc1ccc(N(Cc2ccc(C(=O)Nc3ccccc3N)cc2)C(=O)Nc2ccc(Oc3ccccc3)cc2)cc1OC true (1)

Qu. Entry `Cc1c(Cc2ccc(C(=O)Nc3ccccc3N)cc2)sc(NC(=O)c2ccccc2)c1C#N` : is its pIC50 no less than 6?
Ans. true (1)

Qu. Entry `Nc1ccccc1NC(=O)c1ccc(CNc2nccc3ccccc23)cc1` : is its pIC50 no less than 6?
Ans. false (0)

Qu. Entry `COc1ccc(NCc2ccc(C(=O)Nc3ccccc3N)cc2)c(OC)n1` : is its pIC50 no less than 6?
Ans. true (1)

* * *

- Assay System: cloned recombinant human HDAC-1 (Homo sapiens, UniProt Q13547)
- Construct: made in house; host or cells: Baculovirus insect cell expression system
- Protocol Notes: Human HDAC-1 enzyme inhibition, Assay 1 ([3H]-acetylated histone substrate, scintillation counting)
- Assay type: biochemical
- Condition Parameters: Table 5F; read-out: Human HDAC-1 IC50
- Description: Assay 1. HDAC inhibitors were screened against a cloned recombinant human HDAC-1 enzyme expressed and purified from a Baculovirus insect cell expression system. […] The mixture was extracted with ethyl acetate and the released [^3H]-acetic acid was quantified by scintillation counting. […] IC50 values for HDAC enzyme inhibitors were determined by performing dose response curves with individual compounds and determining the concentration of inhibitor producing fifty percent of the maximal inhibition.
Reported pIC50 values follow for various compounds
Formally, pIC50 is defined as -log10 of the concentration c, with c in mol/L.

Nc1ccccc1NC(=O)c1ccc(CNc2ccc(OCc3cccnc3)cc2)cc1 [Cpd 408] has a reported pIC50 of 5.40

* * *

- Assay System: cloned recombinant human HDAC-1 (Homo sapiens)
- Construct: made in house; host or cells: Baculovirus insect cell expression system
- Protocol Notes: Human HDAC-1 enzyme inhibition, Assay 1 ([3H]-acetylated histone substrate, scintillation counting)
- Format: biochemical
- Condition Parameters: Table 5F; read-out: Human HDAC-1 IC50
Reported Metric: log10 of IC50 (log10 of the value in µM)
All values: base-10 log of IC50 in µM.

1) Nc1ccccc1NC(=O)c1ccc(CNc2ncc(Br)s2)cc1 0.60
2) COc1ccc(NCc2ccc(C(=O)Nc3ccccc3N)cc2)c(C)c1 0.00
3) COc1cc(NCc2ccc(C(=O)Nc3ccccc3N)cn2)cc(OC)c1OC 1.20
4) COc1ccc(NCc2ccc3oc(C(=O)Nc4ccccc4N)cc3c2)cc1OC 0.70
5) COc1cccc(NCc2ccc(C(=O)Nc3ccccc3N)cc2)n1 0.30

`Nc1nc(NCc2ccc(C(=O)Nc3ccccc3N)cc2)c2nc[nH]c2n1` has a reported log10 of IC50 of 0.60

`CC(=O)Nc1sc(Cc2ccc(C(=O)Nc3ccccc3N)cc2)cc1C#N` has a reported log10 of IC50 of 0.30

`Nc1ccccc1NC(=O)c1ccc(CNc2cccc(F)n2)cc1` has a reported log10 of IC50 of 1.11

`COc1ccc(N(Cc2ccc(C(=O)Nc3ccccc3N)cc2)C(=O)Nc2ccc(Cl)cc2)cc1OC` has a reported log10 of IC50 of 0.30

`COc1cccc(NCc2ccc(C(=O)Nc3ccccc3N)cc2)c1` has a reported log10 of IC50 of 0.70

`Nc1ccccc1NC(=O)c1ccc(-c2cccc(CNC3Cc4ccccc4C3)c2)cc1` has a reported log10 of IC50 of 0.30

`CSc1ccc(NCc2ccc(C(=O)Nc3ccccc3N)cc2)cc1` has a reported log10 of IC50 of 0.48

`CCn1c(=O)n(Cc2ccc(C(=O)Nc3ccccc3N)cc2)c(=O)c2sccc21` has a reported log10 of IC50 of 0.30

`COc1ccc(Nc2ccnc(NCc3ccc(C(=O)Nc4ccccc4N)cc3)n2)cc1OC` has a reported log10 of IC50 of 1.23

Reference source: patent US7868204B2
